- Test system: SARS-CoV-2 (USA-WA1/2020)
- Method description: microbe, parasite or virus in culture
- Format: cell-based
- Condition parameters: Severe acute respiratory syndrome coronavirus 2, Calu-3, read-out: EC50, SARS-CoV-2 infection
Readout: pEC50
Scale note: pEC50 = -log10(concentration in M).

The compound CS(=O)(=O)CCNCc1ccc(-c2ccc3ncnc(Nc4ccc(OCc5cccc(F)c5)c(Cl)c4)c3c2)o1 [Lapatinib] showed pEC50 equal to 6.15

The compound CNC(=O)CN1CCC(Oc2cc3c(Nc4cccc(Cl)c4F)ncnc3cc2OC)CC1 [Sapitinib] showed pEC50 equal to 5.74

The compound C=CC(=O)N1CCC[C@@H](n2nc(-c3ccc(Oc4ccccc4)cc3)c3c(N)ncnc32)C1 [Ibrutinib] showed pEC50 equal to 6.10
